# System: IGROV1 ovarian
# test_description: NCI-60 one-dose screen, 48 h
# conditions_used: 10 µM unless noted
Compounds without any hit were thinned out: in the full panel of roughly 83,000, 20% have a hit. Active and inactive are the calls of the source. Rule for the calls: active = growth percent below 10; inactive = the rest.
Hi there, use one of these labels in your reply, thanks! active, inactive

Below, 10 compounds whose answers are already recorded.
// outcome(item) with item = CN(C)C[C@@H]1CCn2cc(c3ccccc32)C2=C(C(=O)NC2=O)c2cn(c3ccccc23)CCO1 active

Fill in: this test's call for COC(=O)c1[nH]cnc1/N=N/N(C)CCO is ___ inactive

Field: outcome | Entry: Cc1cc(N(CCNc2ccnc3cc(Cl)ccc23)Cc2ccc3c(c2)OCO3)nc(N2CCN(C)CC2)n1 inactive

Answer briefly: the call reported for Cc1c(N)ccc(-c2ccc(N)c(C)c2S(=O)(=O)O)c1S(=O)(=O)O in this assay. inactive

Record request — test call for COc1cnc2c(c1)C(=O)c1c-2n(CCCN2CCC(O)CC2)c(=O)c2cc(Cl)ccc12 inactive

Lab log entry: C=CC(=O)Nc1cccc(Oc2nc(Nc3ccc(N4CCN(C)CC4)cc3)nc3ccsc23)c1 — outcome as called in the assay? active

Recorded test outcome, item CN1CCN(c2nc(NCCNc3ccnc4cc(Cl)ccc34)c3ccccc3n2)CC1 inactive

Check the results log: what was the call for CC(C)(C)C(=O)OCOP(=O)(OCOC(=O)C(C)(C)C)C1CCCN(OC(=O)c2ccccc2)C1=O (stereo not given) ? active

Any idea what this test logged for CC/C(=C(/c1ccc(Cl)cc1)c1ccc(OCCN2CCCCC2)cc1)c1ccc(Cl)cc1 ? inactive

Can you look up the reported call for Nc1nc(N)c2cc(CNc3ccc(C(=O)NC(CC(=O)O)C(=O)O)cc3)ccc2n1 (stereo not given) for me? inactive

Further cases:
Hi, sorry to bother you, what did the test record for CCc1ccc(C2=C(O)C(=O)C(c3ccc(CC)cc3)=C(O)C2=O)cc1 ? active

###

# System: CAKI-1 renal
# test_description: NCI-60 one-dose screen, 48 h
# conditions_used: 10 µM unless noted
# Method: Growth inhibition of the CAKI-1 human tumor cell line is measured as a screen for anti-cancer activity. Cells are grown in 96 well plates and exposed to the test compound for 48 hours. Compounds are tested at a single concentration, which is 10^-5 M for most compounds. The reported endpoint is percent growth (GI% or GIPRCNT), where numbers from 0 - 100% represent growth inhibition, and numbers from -100% - 0 represent cell death. For example, a value of 40 represents 60% growth inhibition. […]
About 83,000 compounds went through this panel and 20% of them were active in at least one assay; those are over-represented in the sample as a whole. The source made the active and inactive calls. The calls were made as follows: active = growth percent below 10; inactive = the rest.
The reply should name one outcome from active, inactive

These recorded examples may help you get a feel for the data.
State the result this test recorded for Cc1ccc(F)c(NC(=O)Nc2ccc(-c3cccc4[nH]nc(N)c34)cc2)c1 . inactive

Which outcome did this test record for the molecule COc1ccc(-c2ccc3ncc4c(c3c2)n(-c2ccc(N3CCNCC3)c(C(F)(F)F)c2)c(=O)n4C)cn1 ? active

Could you check what this test reported for COc1ccc(-c2ccc3c(N4CCOC[C@@H]4C)nc(N4CCOC[C@@H]4C)nc3n2)cc1CO ? active

Hi, sorry to bother you, what did the test record for O=S1(=O)OC(c2cc(Cl)c(O)c(Br)c2)(c2cc(Cl)c(O)c(Br)c2)c2ccccc21 ? inactive

Write down the call the test reported for this molecule. Item: CCOc1cccc(/C=N/NC(=O)c2ccccc2Nc2ccnc(C(F)(F)F)c2)c1O active

Dear all, I need the recorded test outcome for CCN(CC)CCCC(C)Nc1cc(-c2ccc(C(F)(F)F)cc2)c(C#N)c2nc3ccccc3n12 (centres undefined) , thank you. inactive

---
Write down the call the test reported for this molecule. Item: CCc1nc2cc(/C=C/C(=O)NO)ccc2c(=O)n1CCc1ccc(F)cc1 active

State the result this test recorded for CCCCN1C(=O)c2cccc3c(-c4ccc5c(c4)ncn5C4CCCCC4)ccc(c23)C1=O . inactive

Outcome? C=CC(=O)Nc1cc2c(Nc3ccc(F)c(Cl)c3)ncnc2cc1C#CC(C)(C)N1CCN(C)CC1 active

Please indicate how the test categorized CN(C)CCn1c(=O)c2c3cc4c(cc3n(CCN(C)C)c2c2ccc(Cl)cc21)OCO4 . inactive

What did this assay record as the result for O=C1C=CC2(NN=C(c3ccccc3)N2c2cccc(Cl)c2)C(Cl)=C1 (centres undefined) ? inactive

Dear colleague, could you share the recorded outcome for CN1CCN(CCCOc2cccc3nc(Nc4ccc(Cl)c(C(F)(F)F)c4)ccc23)CC1 when you have a moment? inactive

Identify the outcome logged in this assay for the molecule shown: CCn1c(-c2nonc2N)nc2c(C#CC(C)(C)O)ncc(OC[C@H]3CCCNC3)c21 inactive

For COC1CCC(N2C(=O)CNc3ncc(-c4ccc(C(C)(C)O)nc4)nc32)CC1 (centres undefined) , what call appears in the results of this test? active

Per the assay record, what outcome was assigned to CCCCCCCC(=O)SCC/C=C/[C@@H]1CC(=O)NCc2cccc(n2)C2=N[C@@](C)(CS2)C(=O)N[C@@H](C(C)C)C(=O)N1 ? inactive

What outcome does the record of this test show for C=CCn1c(=O)c2cnc(Nc3ccc(N4CCN(C)CC4)cc3)nc2n1-c1cccc(C(C)(C)O)n1 ? inactive

###

# System: HOP-62 NSCLC
# test_description: NCI-60 one-dose screen, 48 h
# conditions_used: 10 µM unless noted
The panel holds about 83,000 compounds, 20% with a hit somewhere; the sample as a whole holds those more often. Active and inactive are the calls of the source. Rule for the calls: active = growth percent below 10; inactive = the rest.
Log the outcome using a class from active, inactive

Hey, what did the test say about COc1ccc(Br)cc1NC(=O)Nc1cccc2c1ccn2Cc1ccnc(N)c1 ? active

***
Assay result, entry CCc1nc(C(N)=O)c(Nc2ccc(N3CCC(N4CCN(C)CC4)CC3)c(OC)c2)nc1NC1CCOCC1 — outcome? inactive

Which outcome was assigned to CC(=O)NCC(=O)N1[C@@H]2CC[C@H]1c1ccc(Nc3ncc(C(F)(F)F)c(NC4CCC4)n3)cc12 in this test? inactive

Please indicate how the test categorized Cc1[nH]n(C(N)=S)c(=O)c1N=Nc1ccc(S(=O)(=O)Nc2ccncn2)cc1 . inactive

###

# Tested on: DU-145 prostate
# test_description: NCI-60 one-dose screen, 48 h
# conditions_used: 10 µM unless noted
# Protocol: Cells are grown in 96 well plates and exposed to the test compound for 48 hours. Compounds are tested at a single concentration, which is 10^-5 M for most compounds. The reported endpoint is percent growth (GI% or GIPRCNT), where numbers from 0 - 100% represent growth inhibition, and numbers from -100% - 0 represent cell death. For example, a value of 40 represents 60% growth inhibition. A value of 0 means no net growth occurred over the course of the experiment. […]
The panel holds about 83,000 compounds, 20% with a hit somewhere; the sample as a whole holds those more often. The source made the active and inactive calls. How the source made its calls: active means growth percent below 10; inactive means the rest.
Respond using exactly one of the listed classes: active, inactive

Recorded results for 3 compounds are shown here.
For CC#CC(=O)N1CCC[C@H]1c1nc(-c2ccc(C(=O)Nc3ccccn3)cc2)c2c(N)nccn12 , which call appears in the assay record? inactive

// return assay outcome for Cc1ccc(NC(=O)NC(=O)CSc2nc3ccccc3nc2C)cc1 inactive

How did this test come out for Cc1c(Cn2c(C)nc3c(C(=O)O)cc(N4CCOCC4)cc32)cccc1C(F)(F)F ? inactive

Next:
Dear colleague, could you share the recorded outcome for Cc1ccccc1Nc1nc2nonc2nc1Nc1cccc(C)c1C when you have a moment? inactive

Hello, I am checking results. What call was entered for C=CC(=O)Nc1cc(Nc2nccc(-c3cn(C)c4ccccc34)n2)c(OC)cc1N(C)CCN(C)C ? active

###

# Tested on: OVCAR-5 ovarian
# test_description: NCI-60 one-dose screen, 48 h
# conditions_used: 10 µM unless noted
This is part of a sample that, as a whole, favours compounds with a hit. Of some 83,000 tested, about 20% had one in any assay. Active and inactive are the calls of the source. Rule for the calls: active = growth percent below 10; inactive = the rest.
Pick one: 1 for active, -1 for inactive

Some solved entries appear below for comparison.
Dear all, I need the recorded test outcome for CO/C=C/C(=O)c1cc2cnc3c(=N)cc(NC(=O)C(C)C)c([nH]1)c23 , thank you. 1

Call for entry CC/C(=C(/c1ccc(Cl)cc1)c1ccc(OCCN2CCCCC2)cc1)c1ccc(Cl)cc1 : -1

Field: outcome | Entry: CS(=O)(=O)N1CCN(Cc2cc3nc(-c4cccc5[nH]ncc45)nc(N4CCOCC4)c3s2)CC1 -1

Which outcome was entered for the molecule CCN(CC)CCNC(=O)c1c(C)[nH]c(/C=C2\C(=O)Nc3ccc(F)cc32)c1C in this test? -1

Please let me know the test result on file for C#Cc1cccc(Nc2ncnc3cc(OC)c(OCCCCCCC(=O)NO)cc23)c1 . 1

Others:
So what was the verdict on CCCCCCCC(=O)SCC/C=C/[C@@H]1CC(=O)NCc2cccc(n2)C2=N[C@@](C)(CS2)C(=O)N[C@@H](C(C)C)C(=O)N1 in this test? -1

Fill in: this test's call for CS(=O)(=O)CCNCc1ccc(-c2ccc3ncnc(Nc4ccc(OCc5cccc(F)c5)c(Cl)c4)c3c2)o1 is ___ -1

Field: outcome | Entry: CN1CCN(c2ccc(OC(F)(F)F)c(Nc3ncc4c(n3)-c3c(c(C(N)=O)nn3CCO)CC4)c2)CC1 -1

Query: recorded result category for CN(C)CCn1c(=O)c2c3cc4c(cc3n(CCN(C)C)c2c2ccc(Cl)cc21)OCO4 in this test -1

Please share the test call associated with O=C(Nc1nc2cccc(-c3ccc(CN4CCS(=O)(=O)CC4)cc3)n2n1)C1CC1 . -1

For Clc1ccc(/C=C/c2cc(N3CCOCC3)c3cc(Cl)c(Cl)cc3n2)cc1 , which call appears in the assay record? -1

Query: recorded result category for COc1cc2c(cc1OCCCCN1CCN(CC(=O)Nc3ccc(Cl)cc3C(=O)c3ccccc3Cl)CC1)N=CC1CCCN1C2=O (configuration not stated) in this test 1

Which result was noted for this molecule in the test: C=CC(=O)Nc1cccc(Nc2nc(Nc3ccc(N4CCN(C(C)=O)CC4)cc3OC)ncc2C(F)(F)F)c1 -1

For this molecule, state the assay outcome: Cc1ccc(NC(=O)c2ccc(CN3CCN(C)CC3)cc2)cc1Nc1nc(-c2cccnc2)cs1 -1

Returns: the outcome recorded for C=C1[C@@H](O)C[C@H]2C(C)(C)C[C@H](Cl)C[C@]2(C)[C@H]1C[C@H](O)[C@H]1CC(=O)NC1=O in this assay. 1

How did this test come out for CNC(=O)c1c(C)oc2cc(Oc3ncnc4cc(OC)c(OC)cc34)ccc12 ? -1

Hi team, can someone confirm the assay call for CC(=O)OC(C(=O)c1ccccc1)c1ccccc1 (configuration not stated) ? -1

In this assay, the call recorded for COc1cc2cc(NCc3ccc(Cl)cc3)nc(C)c2cc1OC was what? -1
